- STUDY SYSTEM: P. falciparum apicoplast DNA polymerase (Pf-apPOL) (Plasmodium falciparum)
- Sequence (Q8ILY1 entry or part of it): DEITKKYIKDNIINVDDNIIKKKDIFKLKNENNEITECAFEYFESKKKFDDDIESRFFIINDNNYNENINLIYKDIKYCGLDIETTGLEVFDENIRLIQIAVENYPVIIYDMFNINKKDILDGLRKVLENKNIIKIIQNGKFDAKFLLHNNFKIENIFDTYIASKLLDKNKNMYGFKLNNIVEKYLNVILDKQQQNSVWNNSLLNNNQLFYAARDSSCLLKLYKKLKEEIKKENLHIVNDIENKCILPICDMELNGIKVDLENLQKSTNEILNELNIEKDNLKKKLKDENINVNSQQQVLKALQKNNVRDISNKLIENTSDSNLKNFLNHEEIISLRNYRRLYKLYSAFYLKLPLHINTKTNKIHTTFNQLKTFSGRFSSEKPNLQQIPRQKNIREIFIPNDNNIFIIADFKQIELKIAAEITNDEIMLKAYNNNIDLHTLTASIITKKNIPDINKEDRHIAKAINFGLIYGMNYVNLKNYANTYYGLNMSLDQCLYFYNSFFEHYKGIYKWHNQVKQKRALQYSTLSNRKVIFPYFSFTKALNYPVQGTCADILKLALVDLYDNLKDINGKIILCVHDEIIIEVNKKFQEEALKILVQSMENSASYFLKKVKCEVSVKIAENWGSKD
- ASSAY REMARKS: Fluorescence-based high-throughput DNA polymerase assay (molecular beacon), primary screen and dose-response
- Format: biochemical
- CONDITION LABEL: DRC-1; 90'; concentration 2.5
molecules and their reported % inhibition Apol 90'
Answer with a number only, understood to be in %.

Examples from the recorded data:
CCOc1cccc2cc(C(=O)Nc3nnc(-c4ccno4)o3)oc12    2.531
O=C(CSc1nnc(-c2ccco2)[nH]1)c1ccc(Cl)cc1    14.2802
O=C(c1c[nH]c2ncccc12)N1CCCCCC1 [Molecule 51, O=C(c1c[nH]c2c1cccn2)N1CCCCCC1]    1.194
Cc1ccc(C(=O)/C=C/C=C/C=C/N(C)C)o1    11.0382
O=C(O)c1ccc(-c2nc3cc(-c4ccc5nc(-c6ccc(C(=O)O)cc6)[nH]c5c4)ccc3[nH]2)cc1    3.724

% inhibition Apol 90' measured on CN(C)C1C(c2ccccc2)=C(c2ccccc2)SC(c2ccccc2)C1[N+](=O)[O-] (stereo not drawn) = 3.398

% inhibition Apol 90' reading for `O=C(O)C(=O)Nc1nc(-c2ccc3c(c2)OCCO3)cs1` : 8.772

Measured % inhibition Apol 90' of `CN(C)C=C1SCc2ccccc2C1=O` : 2.782

Per the record, `O=C(CSc1nc2ccccc2s1)Nc1ncc([N+](=O)[O-])s1` has % inhibition Apol 90' of 0.4185
